Assign protein stability index to each entry below.
B1: LOXL2 (parent)
chain: FSPDGPSRFRKAYKPEQPLVRLRG

variants of: B1; assay: protein stability index of a GFP-peptide fusion (GPS, HEK-293T) (PSI 1-6); higher = more stable; conditions: c terminus: a fixed tail appended;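 further: lentivirally expressed fusions sorted by FACS into six bins by GFP to DsRed ratio, PSI derived from sequencing read proportions per bin multiplied by bin number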
One number for each entry.

Record excerpt, results attached:
{"biopolymer_sequence": "FSPDGPSRFRKANKPEQPLVRLRG [Y13N]", "observed_value": 2.15}
{"biopolymer_sequence": "FSPDGPSRFRFAYKPEQPLVRLRG [K11F]", "observed_value": 2.21}
{"biopolymer_sequence": "FSPDGPVRFRKAYKPEQPLVRLRG [S7V]", "observed_value": 1.64}
{"biopolymer_sequence": "FSPDGPSRFRKAWKPEQPLVRLRG [Y13W]", "observed_value": 3.28}
{"biopolymer_sequence": "FSPDGPSRFRKAYKPEQLLVRLRG [P18L]", "observed_value": 1.89}

Working through the 5 variants below one at a time, give protein stability index for each.
1. FSPDGPSRFRKWYKPEQPLVRLRG [A12W]
2. FSPDGPSRFRKAYKPEQPLVRTRG [L22T]
3. FSPDGPSRFRKAYKPEQPLVRLTG [R23T]
4. FSPDGPSRFRKAYKPNQPLVRLRG [E16N]
5. FSPDGPSRFRKAYKPEQWLVRLRG [P18W]

**A:**
1: 4.25; 2: 2.26; 3: 1.33; 4: 1.64; 5: 2.44

Working through the 3 variants below one at a time, give protein stability index for each.
1. FSPDKPSRFRKAYKPEQPLVRLRG [G5K]
2. FSPDGPSRFRKAYKPEQPLVWLRG [R21W]
3. FSPDGMSRFRKAYKPEQPLVRLRG [P6M]

**A:**
[2.17, 1.92, 1.56]
